Biological target: Human Recombinant Matriptase 2 (Homo sapiens, UniProt Q8IU80)
Construct: made in house
Sequence (Q8IU80 1-811): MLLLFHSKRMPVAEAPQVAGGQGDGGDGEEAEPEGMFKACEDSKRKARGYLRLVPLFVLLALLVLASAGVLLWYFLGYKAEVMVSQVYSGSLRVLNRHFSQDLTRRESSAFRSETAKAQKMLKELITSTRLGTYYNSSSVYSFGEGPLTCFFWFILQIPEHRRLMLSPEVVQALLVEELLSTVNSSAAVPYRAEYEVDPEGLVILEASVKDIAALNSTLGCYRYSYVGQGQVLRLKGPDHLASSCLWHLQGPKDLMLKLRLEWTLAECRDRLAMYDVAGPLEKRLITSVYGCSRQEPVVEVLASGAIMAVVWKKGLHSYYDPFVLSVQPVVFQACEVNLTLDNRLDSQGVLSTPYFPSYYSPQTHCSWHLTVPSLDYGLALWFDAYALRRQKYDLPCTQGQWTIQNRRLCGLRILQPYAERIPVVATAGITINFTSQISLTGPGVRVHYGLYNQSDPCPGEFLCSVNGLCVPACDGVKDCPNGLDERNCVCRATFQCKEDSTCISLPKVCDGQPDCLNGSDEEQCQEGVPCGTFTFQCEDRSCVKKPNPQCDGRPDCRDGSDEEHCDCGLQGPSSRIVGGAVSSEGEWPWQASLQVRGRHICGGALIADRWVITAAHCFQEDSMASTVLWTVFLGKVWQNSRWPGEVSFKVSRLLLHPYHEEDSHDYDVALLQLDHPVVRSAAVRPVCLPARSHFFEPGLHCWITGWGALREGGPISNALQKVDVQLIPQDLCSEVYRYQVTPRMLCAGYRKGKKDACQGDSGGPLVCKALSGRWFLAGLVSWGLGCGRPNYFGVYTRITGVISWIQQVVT
Assay: Matriptase 2 inhibition, fluorescence based assay (Method I)
Type: biochemical
Settings: Table A; Ki of Matriptase-2 given as class symbols; read-out: Mat-2 Ki
quantity_measured: Ki

Examples from the recorded data:
[
  {
    "molecule": "CC(C)(C)OC(=O)N1CCOC[C@@H]1CS(=O)(=O)Nc1cc(Cn2c(C(=O)O)cc3ccc(CN)nc32)c2ccccc2c1 (racemic)",
    "reported_result": "500 to 3000 nM"
  },
  {
    "molecule": "NCc1ccc2cc(C(=O)Nc3nnn[nH]3)n(Cc3cc(NS(=O)(=O)CC[C@@H]4CCCN4)cc4ccccc34)c2n1",
    "reported_result": "≤ 100 nM"
  },
  {
    "molecule": "COc1ccc(Cl)cc1CS(=O)(=O)Nc1cc(Cn2c(C(=O)O)cc3ccc(CN)nc32)c2ccccc2c1",
    "reported_result": "500 to 3000 nM"
  },
  {
    "molecule": "CC(C)(C)n1cncc1COC(=O)c1cc2ccc(CN)cc2n1Cc1cc(NS(=O)(=O)Cc2ccccc2)cc2ccccc12",
    "reported_result": "100 to 500 nM"
  },
  {
    "molecule": "CCOC(=O)c1cc2ccc(CN)nc2n1Cc1cc(NS(=O)(=O)CC2CCNCC2)cc2ccccc12",
    "reported_result": "100 to 500 nM"
  }
]

*Q* Param item = `CNCCOC(=O)c1cc2ccc(CN)nc2n1Cc1cc(NS(=O)(=O)CC[C@@H]2CCCN2)cc2ccccc12` ; retrieve measured Ki.
*A* 500 to 3000 nM

*Q* Param item = CN1CCO[C@@H](COC(=O)Nc2cc(Cn3c(C(=O)O)cc4ccc(CN)nc43)c3ccccc3c2)C1 (racemic) ; retrieve measured Ki.
*A* 100 to 500 nM

*Q* Param item = `Cc1conc1CS(=O)(=O)Nc1cc(Cn2c(C(=O)O)cc3ccc(CN)nc32)c2ccccc2c1` ; retrieve measured Ki.
*A* 100 to 500 nM
